assay: physchem; details: pH 7.4 buffer
Property Measured: solubility thermodynamic (µM)
Your answer is read as µM, so omit the unit and give the number.

test_smiles=O=C(c1ccccc1)C1CCN(C(=O)c2c(F)cccc2F)CC1 unit_annotation=µM value=13.2
test_smiles=CS(=O)(=O)c1cccc(Nc2nccc(N(CC#N)c3c(Cl)ccc4c3OCO4)n2)c1 unit_annotation=µM value=1.3
test_smiles=Nc1nccc(/C=C/c2ccc(Cl)cc2)n1 unit_annotation=µM value=8.7

For CCn1c2ccccc2c2cc(NC(=O)CCc3ccncc3)ccc21 , what is its reported solubility thermodynamic?
2

Sample CCN(CC)C(=O)C(C)(C)c1ccc2[nH]c(-c3cc(C)cc(C)c3)c(CCNCCCCc3ccncc3)c2c1 — what was its solubility thermodynamic?
141

Return reported solubility thermodynamic; argument: CCN(C(=O)NCc1ccc(S(C)(=O)=O)cc1)C1CCN(CCC(c2ccccc2)c2ccccc2)CC1
282

Item under review: COc1cc2ncnc(Nc3cccc(Cl)c3F)c2cc1CN1CCC[C@H]1CC(N)=O . Reported solubility thermodynamic?
234

Give the measured solubility thermodynamic of CCc1cc(OCc2ccc(-c3ccccc3-c3nnn[nH]3)cc2)c2ccccc2n1 .
7.8

Reported solubility thermodynamic for O=C(CO)N1CCC(c2[nH]nc(-c3ccc(Cl)cc3)c2-c2ccncn2)CC1 : what is it?
60.3

Find the recorded solubility thermodynamic belonging to CN(C)C(=O)[C@H](O)[C@H](Cc1ccccc1)NC(=O)c1cc2cc(Cl)ccc2[nH]1 and report it.
22.9

----------
assay: in vitro; settings: human, microsomes
Reported microsomal CLint by item:
Numbers only; they are read as µL/min/mg.

The cases that follow already have their microsomal CLint on record.
compound=CCc1[nH]c2nc(Sc3cnc4ccc[n+]([O-])c4c3)nc(N3C[C@@H]4[C@@H](N)[C@@H]4C3)c2c1Cl property_measured="microsomal CLint" unit_annotation=µL/min/mg value=33.9
compound=Cc1ccccc1/N=N/c1ccc(NC(=O)c2ccnn2C)c(C)c1 property_measured="microsomal CLint" unit_annotation=µL/min/mg value=4
compound="CC1=C(C)C(=O)C(C(CCCCCC(=O)O)c2ccccc2)=C(C)C1=O (stereo not given) [SERATRODAST]" property_measured="microsomal CLint" unit_annotation=µL/min/mg value=3

Attention now turns to another entry.
Which microsomal CLint reading was recorded for the compound O=C(NCC12CC3CC(CC(C3)C1)C2)c1cc(OC2CCNCC2)ccc1Cl ?
28

----------
test: physchem; details: octan-1-ol/water, pH 7.4, LogD7.4
# Lookup of reported logD keyed by entry
Please reply with the number alone, leaving off any unit.

compound=Cc1cc(C)nc(SCC(N)=O)n1 property_measured=logD value=0.23

Find the recorded logD belonging to O=C(N[C@@H](Cc1ccccc1)[C@@H](O)C(=O)N1C[C@@H](O)[C@@H](O)C1)c1cc2cc(Cl)ccc2[nH]1 [INGLIFORIB] and report it.
2.8

I'd like to know its logD. The compound in question is CCOc1ccc(-c2cnc3n2CCCCC3)cc1
3.01

Fill in the blank: the reported logD of O=C(Nc1cccc(-c2nnn[nH]2)c1)c1cc(O)cc(C(F)(F)F)c1 is ____.
0.8

If you can, please state the reported logD value of COc1cc(Nc2ncnc3cccc(O[C@H](C)C(=O)N4CCOCC4)c23)ccc1Oc1ccc(C)nc1 .
3.6

----------
test: physchem; conditions: octan-1-ol/water, pH 7.4, LogD7.4
Classification field: enter true for logD values not below 3, false for values below it.

molecule=COc1ccc(OC)c(-c2cccc3c(N)c(C(=O)NC(C)C)nnc23)c1 category_label=true
molecule="CC(NC(=O)C1(N)CCN(c2ncnc3[nH]ccc23)CC1)c1ccc(S(C)(=O)=O)cc1 (stereo not given)" category_label=false
molecule=CCCNCc1cnc(-c2ccc(C(=O)Nc3ccccc3N)cc2)s1 category_label=false
molecule=Cc1ccccc1Nc1ncnc2ccccc12 category_label=false

Attention now turns to another entry.
Would you say CCOc1cc(-c2cccc3c(=O)cc(N4CCOCC4)oc23)ccc1NC(=O)CN1CCOCC1 shows logD at minimum 3?
false

----------
Entries and their microsomal CLint values follow.
assay: in vitro; details: human, liver microsomes
Respond numerically; units are µL/min/mg and should not be typed.

test_smiles=COc1cc(-c2ccc(Nc3ccccc3C(=O)O)c(OC)c2)ccc1Nc1ccccc1C(=O)O value=6.61
test_smiles=Cc1ccc(S(=O)(=O)Nc2c(C(=O)N[C@H](C)C(C)(C)C)c(C)nn2-c2ccccc2)cc1 value=42
test_smiles=Cc1ccc(S(=O)(=O)Nc2c(C(=O)N[C@@H](C)C(C)(C)C)c(C)nn2C2CCSCC2)cc1 value=25
test_smiles=COc1ccc(Cc2c(N)n[nH]c2N)cc1 value=5.37
test_smiles=c1csc(Cn2nnnc2CN2CCN(c3nc4ccccc4s3)CC2)c1 value=99

Consider the molecule O=C(NS(=O)(=O)c1ccc(Cl)cc1)N1CCC(N2CCC(Oc3ccc(Cl)c(Cl)c3)CC2)CC1 and give its measured microsomal CLint.
5

Entry COc1cccc2c1c(NS(=O)(=O)c1ccc(Cl)s1)nn2Cc1cccc(CNC(=O)C(C)(C)O)c1 : reported microsomal CLint = ?
50

Please report the recorded microsomal CLint for Nc1nc2ccc(-c3ccncc3)cc2s1 .
20.4

----------
assay: in vitro; details: human, plasma, PPB
// class assignment uses fraction unbound at 5 h with these ranges: low-valued (below 0.01), mid-valued (0.01 to below 0.04), high-valued (0.04 or more)

Solved cases (8 shown):
compound=C[C@H](CO)Nc1nc(SCc2cccc(F)c2F)nc2nc(N)cnc12 category_label=high-valued
compound=Cc1c(Sc2ccc(Cl)cc2)c2c(-c3cnccn3)cccc2n1CC(=O)O category_label=mid-valued
compound=O=C(Nc1ccc(F)cc1)c1ccc(Cl)[n+]([O-])c1 category_label=high-valued
compound=COc1cccc2c1c(NS(=O)(=O)c1ccc(Cl)s1)nn2Cc1cccc(CNC(C)=O)c1 category_label=low-valued
compound=Nc1ccc(OCCc2ccccc2)cc1 category_label=mid-valued
compound="O=C(NCc1ccc(OC(F)(F)F)cc1)C1c2cccc(O)c2C(=O)N1CCc1ncc(F)cn1 (stereo not given)" category_label=mid-valued
compound=Cc1cnc(Nc2nc(N[C@@H](C)c3ncc(F)cn3)nc(N3CCOCC3)c2F)s1 category_label=high-valued
compound=Cc1ccc(C)c(OCCCC(C)(C)C(=O)O)c1 category_label=low-valued

Which class is correct for the following compound? O=C(O)COc1ccc(Cl)cc1CN1CCN(S(=O)(=O)Cc2ccccc2)CC1
low-valued

Hi there! Could you help me figure out the category for CN1CCN(S(=O)(=O)c2ccc(-c3cnc(N)c(C(=O)Nc4cnccc4CN4CCCC4)n3)cc2)CC1 please?
high-valued

----------
assay: physchem; conditions: pH 7.4 buffer
Property Measured: solubility thermodynamic (µM)
Give the value, in units of µM, as a plain number.

Field: example entries. Status: answers known.
compound=Cc1ccc(CO)cc1N(C)c1ccnc(Nc2cc(CN3CCOCC3)cc(N3CCOCC3)c2)n1 property_measured="solubility thermodynamic" value=372
compound="O=C(NCc1ccncc1)c1ccc(Oc2ccc(C#CC3(O)CN4CCC3CC4)cc2)cc1 (centres undefined)" property_measured="solubility thermodynamic" value=269
compound=CS(=O)(=O)C1(c2cc(N3CCOCC3)nc(-c3cccc4[nH]ccc34)n2)CC1 property_measured="solubility thermodynamic" value=4.6

Please look up its solubility thermodynamic: CC(C)Oc1cc(-c2cccc3c(=O)cc(N4CCOCC4)oc23)ccc1NC(=O)CN1CCOCC1
4

----------
assay: physchem; details: octan-1-ol/water, pH 7.4, LogD7.4
Exam item: assign 1 to entries whose logD is below 2 and -1 to entries at or above 2. Note that a value of exactly 2 receives -1.

molecule=COc1cc(N2CCN(C(C)=O)CC2)ccc1Nc1ncc(Cl)c(-c2cnc3c(F)cc(F)cn23)n1 category_label=-1

Please determine if N[C@@H]1CCCN(c2c(/C=C3\SC(=O)NC3=O)cccc2-c2ccncc2)C1 is below 2 in terms of logD.
1

Find out if reported logD for O=c1[nH][nH]c(=O)c2c(O)c3c(Cl)cc(Cl)cc3nc12 is less than 2
1

Consider Nc1nc(-c2ccccc2)nc2c1nc(O)n2Cc1ccccc1 . Does its logD lie strictly below 2?
-1

hey, is logD for CN1CCN(CC(=O)N2c3ccccc3C(=O)Nc3cccnc32)CC1 [PIRENZEPINE] lower than 2 or not?
1

Identify whether the molecule C[C@H](Cc1cccc(CC(=O)NC23CC4CC(CC(C4)C2)C3)c1)NC[C@H](O)c1ccc(O)c(CO)c1 records logD below 2.
-1

State whether 2 exceeds logD recorded for Cc1cc(Nc2nc(N[C@@H](C)c3ccc(F)cn3)c(C#N)cc2F)n[nH]1 .
-1

Please determine if CC(=O)Nc1ccc(-c2ccccc2)n(CC(=O)NC(C(=O)C(F)(F)F)C(C)C)c1=O (stereo not given) is below 2 in terms of logD.
1

Does the reported logD of Cc1ccc(C(=O)C(C)CN2CCCCC2)cc1 (stereo not given) [TOLPERISONE] stay below 2?
1

Just wondering, is logD of O=C(NS(=O)(=O)c1ccc(F)cc1)N1CCC(N2CCC(Oc3ccc(Cl)c(Cl)c3)CC2)CC1 below 2?
1
